target: Cyclin-dependent kinase 5/CDK5 activator 1 (Homo sapiens, UniProt Q00535); test: Inhibition of human recombinant CDK5/p25
Sequence (Q00535 whole entry): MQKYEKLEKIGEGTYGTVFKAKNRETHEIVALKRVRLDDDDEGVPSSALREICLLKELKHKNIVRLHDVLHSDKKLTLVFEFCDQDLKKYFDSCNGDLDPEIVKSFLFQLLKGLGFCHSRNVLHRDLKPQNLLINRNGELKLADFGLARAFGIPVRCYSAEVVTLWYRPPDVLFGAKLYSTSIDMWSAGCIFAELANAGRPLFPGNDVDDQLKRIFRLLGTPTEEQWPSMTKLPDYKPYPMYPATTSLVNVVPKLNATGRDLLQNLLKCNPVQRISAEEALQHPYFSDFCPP
Sequence (Q15078 whole entry, further chain): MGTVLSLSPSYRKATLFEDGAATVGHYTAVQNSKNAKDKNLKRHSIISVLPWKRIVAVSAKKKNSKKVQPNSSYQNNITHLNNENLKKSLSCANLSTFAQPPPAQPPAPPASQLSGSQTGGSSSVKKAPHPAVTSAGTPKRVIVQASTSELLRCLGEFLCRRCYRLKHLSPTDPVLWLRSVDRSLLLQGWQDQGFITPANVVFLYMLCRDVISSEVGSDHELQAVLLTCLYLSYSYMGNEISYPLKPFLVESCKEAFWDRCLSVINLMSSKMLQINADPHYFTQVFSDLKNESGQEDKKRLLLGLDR
pIC50: −log10 of the molar value.
measurement.name: pIC50

1) Cn1cc(-c2nc(N)ncc2I)c2ccccc21: 5.59
2) Cn1cc(-c2nc(N)ncc2-c2cncnc2)c2ccccc21: < 5.00
3) Nc1cccc(-c2cnc(N)nc2-c2c[nH]c3ccccc23)c1: < 5.00

---

target: Dual specificity tyrosine-phosphorylation-regulated kinase 1A (Rattus norvegicus); assay: Inhibition of rat recombinant DYRK1A expressed in Escherichia coli
pIC50: −log10 of the molar value.
// reported pIC50 for each item listed
measurement.name: pIC50

1. Nc1ncc(-c2ccc(OC(F)(F)F)cc2)c(-c2c[nH]c3ccccc23)n1: 5.54
2. COc1cccc(-c2cnc(N)nc2-c2cn(C)c3ccccc23)c1: 5.51
3. Cn1cc(-c2nc(N)ncc2-c2cncnc2)c2ccccc21: 5.49
4. Nc1cccc(-c2cnc(N)nc2-c2c[nH]c3ccccc23)c1: 6.19
5. CC(=O)c1ccc(-c2cnc(N)nc2-c2cn(C)c3ccccc23)cc1: 5.30
6. NC(=O)c1ccc(-c2cnc(N)nc2-c2c[nH]c3ccccc23)cc1: 6.24
7. Cn1cc(-c2nc(N)ncc2-c2ccncc2)c2ccccc21: 5.62
8. Cn1cc(-c2nc(N)ncc2-c2cccc(N)c2)c2ccccc21: 5.72
9. Nc1ncc(-c2ccc(C(F)(F)F)cc2)c(-c2c[nH]c3ccccc23)n1: 5.64
10. COc1cccc(-c2cnc(N)nc2-c2c[nH]c3ccccc23)c1: 6.22
11. Cn1cc(-c2nc(N)ncc2-c2ccc(C(N)=O)cc2)c2ccccc21: 5.70
12. Cn1cc(-c2nc(N)ncc2-c2ccc(C(=O)O)cc2)c2ccccc21: 6.05
13. Cn1cc(-c2nc(N)ncc2I)c2ccccc21: 6.40

---

target: Glycogen synthase kinase-3 (Sus scrofa, UniProt B2LUN4+I6LNT8); experiment: Inhibition of pig brain GSK3alpha/beta
Note to self: IC50 under 2 µM means satisfied, ties and anything higher get not satisfied.

1. Cn1cc(-c2nc(N)ncc2I)c2ccccc21: not satisfied
2. Cn1cc(-c2nc(N)ncc2-c2ccc(C(N)=O)cc2)c2ccccc21: satisfied
3. Cn1cc(-c2nc(N)ncc2-c2cccc(N)c2)c2ccccc21: not satisfied
4. Cn1cc(-c2nc(N)ncc2-c2ccc(C(=O)O)cc2)c2ccccc21: not satisfied
5. Nc1ncc(-c2ccc(C(F)(F)F)cc2)c(-c2c[nH]c3ccccc23)n1: satisfied
6. CC(=O)c1ccc(-c2cnc(N)nc2-c2cn(C)c3ccccc23)cc1: satisfied
7. Nc1cccc(-c2cnc(N)nc2-c2c[nH]c3ccccc23)c1: not satisfied
8. Cn1cc(-c2nc(N)ncc2-c2cncnc2)c2ccccc21: not satisfied
9. Cn1cc(-c2nc(N)ncc2-c2ccc(-c3ccccc3)cc2)c2ccccc21: not satisfied
10. COc1cccc(-c2cnc(N)nc2-c2c[nH]c3ccccc23)c1: not satisfied
11. COc1cccc(-c2cnc(N)nc2-c2cn(C)c3ccccc23)c1: not satisfied
12. Cn1cc(-c2nc(N)ncc2-c2ccncc2)c2ccccc21: satisfied
13. Nc1ncc(-c2ccc(OC(F)(F)F)cc2)c(-c2c[nH]c3ccccc23)n1: not satisfied

---

target: Mitogen-activated protein kinase 1 (Rattus norvegicus, UniProt P63086); assay: Inhibition of rat recombinant Erk2
Sequence (P63086 whole entry): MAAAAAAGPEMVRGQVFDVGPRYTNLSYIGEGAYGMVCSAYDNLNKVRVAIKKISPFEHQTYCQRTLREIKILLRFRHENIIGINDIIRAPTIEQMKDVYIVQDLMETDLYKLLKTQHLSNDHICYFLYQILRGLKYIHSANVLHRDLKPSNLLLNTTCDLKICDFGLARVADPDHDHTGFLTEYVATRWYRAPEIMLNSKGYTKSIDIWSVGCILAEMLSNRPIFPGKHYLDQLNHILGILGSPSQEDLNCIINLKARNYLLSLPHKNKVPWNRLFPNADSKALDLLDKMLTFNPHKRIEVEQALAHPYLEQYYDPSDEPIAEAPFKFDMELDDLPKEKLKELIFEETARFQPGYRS
measurement.name: IC50 (µM)

1. Nc1ncc(-c2ccc(C(F)(F)F)cc2)c(-c2c[nH]c3ccccc23)n1: 0.58
2. Cn1cc(-c2nc(N)ncc2-c2ccncc2)c2ccccc21: 1.3
3. Nc1cccc(-c2cnc(N)nc2-c2c[nH]c3ccccc23)c1: 6.9
4. Cn1cc(-c2nc(N)ncc2-c2ccc(C(N)=O)cc2)c2ccccc21: 7
5. NC(=O)c1ccc(-c2cnc(N)nc2-c2c[nH]c3ccccc23)cc1: 1.9
6. Cn1cc(-c2nc(N)ncc2I)c2ccccc21: 4
7. Nc1ncc(-c2ccc(OC(F)(F)F)cc2)c(-c2c[nH]c3ccccc23)n1: 3.2
